- System: OVCAR-3
- measurement-notes: WST-1 IC50 determination, OVCAR-3
- Format: cell-based, human
- measurement-setup: Homo sapiens, OVCAR-3; 72 hours, WST-1; read-out: Anticancer activity IC50 ± SD, OVCAR-3
measurement-kind: IC50

Enquiry: State the recorded IC50 for this entry: N=C(N)c1ccc(/N=N/Nc2ccc(C(=N)N)cc2)cc1 [DMZ, Diminazene aceturate, reference compound]
Return: > 25 µM

###

Give pIC50 for every item shown.
- Tested on: U87
- measurement-notes: IC50 determination, U87
- Format: cell-based
- measurement-setup: Homo sapiens, U-87 MG; Glioblastoma; read-out: Anticancer activities, U87
Numbers only, as −log10 of the molar value.

{"compound": "N=C(N)c1ccc(/N=N/c2c(N)ncc3ccc(Br)cc23)cc1", "numeric-value": 6.25}

Moving on to another molecule below.
Enquiry: State the recorded pIC50 for this entry: N=C(N)c1ccc(/N=N/c2c(N)ncc3ccccc23)cc1
Return: 5.88

###

- tested-on: 27mer bcl-2
- measurement-notes: ITC titration with bcl-2 G-quadruplex
- measurement-setup: from ITC data, as low as; read-out: dissociation constant
pKd: −log10 of the molar value.
measurement-kind: pKd

Enquiry: State the recorded pKd for this entry: N=C(N)c1ccc(/N=N/Nc2ccc(C(=N)N)cc2)cc1 [DMZ, Diminazene aceturate, reference compound]
Return: ~9.00

###

Give pIC50 for every item shown.
- System: MDA-MB-231
- measurement-notes: WST-1 IC50 determination, MDA-MB-231
- Assay type: cell-based, human
- measurement-setup: 72 hours, WST-1; read-out: Anticancer activity IC50 ± SD, MDA-MB-231
Answers are plain numbers, as −log10 of the molar value.

{"molecule": "N=C(N)c1ccc(/N=N/Nc2ccccc2C#Cc2ccc(F)cc2)cc1", "pIC50": 5.21}
{"molecule": "N=C(N)c1ccc(N=NNc2cccc(C#Cc3ccccc3)c2)cc1", "pIC50": 5.02}
{"molecule": "COc1ccc(C#Cc2cccc(NN=Nc3ccc(C(=N)N)cc3)c2)cc1", "pIC50": 5.26}
{"molecule": "N=C(N)c1ccc(N=NNc2cccc(C#Cc3ccccn3)c2)cc1", "pIC50": 4.84}
{"molecule": "C#Cc1ccccc1NN=Nc1ccc(C(=N)N)cc1", "pIC50": 4.63}

Enquiry: Return pIC50 measured with MDA-MB-231 given this molecule: N.N.[Cl][Pt][Cl] [Cisplatin]
Return: 4.93

###

- System: duplex
- measurement-notes: FRET melting assay, duplex DNA
- Format: binding
- measurement-setup: dual-labeled DNA 0.2 μM, DMZ analogues 1 μM, potassium cacodylate 60 mM pH 7.2
measurement-kind: ΔTm duplex

Enquiry: State the recorded ΔTm duplex for this entry: N=C(N)c1ccc(/N=N/Nc2ccc(C(=N)N)cc2)cc1 [DMZ, Diminazene aceturate, reference compound]
Return: 6.4 °C

###

- Tested on: k-RAS21R
- measurement-notes: FRET melting assay, k-RAS21R
- Assay type: binding
- measurement-setup: dual-labeled DNA 0.2 μM, DMZ analogues 1 μM, potassium cacodylate 60 mM pH 7.2
Give ΔTm k-RAS21R for every item shown.
Answers are plain numbers, in °C.

Here are 8 compounds together with their reported answers.
{"compound": "N#Cc1cccc(NN=Nc2ccc(C(=N)N)cc2)c1 [DMZ4]", "tested-on": "k-RAS21R", "measure-unit": "°C", "numeric-value": 2.00}
{"compound": "N=C(N)c1ccc(NN=Nc2ccccc2)cc1 [DMZ1]", "tested-on": "k-RAS21R", "measure-unit": "°C", "numeric-value": 5.47}
{"compound": "N=C(N)c1ccc(N=NNc2cccc(C#Cc3ccc(F)cc3)c2)cc1 [DMZ9]", "tested-on": "k-RAS21R", "measure-unit": "°C", "numeric-value": 6.58}
{"compound": "N=C(N)c1ccc(N=NNc2cccc(-c3ccccc3)c2)cc1 [DMZ6]", "tested-on": "k-RAS21R", "measure-unit": "°C", "numeric-value": 4.20}
{"compound": "N=C(N)c1ccc(N=NNc2ccncc2)cc1 [DMZ14]", "tested-on": "k-RAS21R", "measure-unit": "°C", "numeric-value": 2.19}
{"compound": "C#Cc1ccccc1NN=Nc1ccc(C(=N)N)cc1 [DMZ11]", "tested-on": "k-RAS21R", "measure-unit": "°C", "numeric-value": 2.19}
{"compound": "C#Cc1ccc(NN=Nc2ccc(C(=N)N)cc2)cc1 [DMZ3]", "tested-on": "k-RAS21R", "measure-unit": "°C", "numeric-value": 5.66}
{"compound": "N=C(N)c1ccc(N=NNc2cccc(C#Cc3ccccn3)c2)cc1 [DMZ8]", "tested-on": "k-RAS21R", "measure-unit": "°C", "numeric-value": 14.62}

Provide ΔTm k-RAS21R values for the following items, in order.
1. N=C(N)c1ccc(N=NNc2ccccc2C#Cc2ccccc2)cc1 [DMZ12]
2. C#Cc1cccc(NN=Nc2ccc(C(=N)N)cc2)c1 [DMZ5]
3. N=C(N)c1ccc(N=NNc2cccc(C#Cc3ccccc3)c2)cc1 [DMZ7]

Return:
1. 2.19
2. 6.39
3. 2.56
